assayed_target: Mu-type opioid receptor (Rattus norvegicus)
Sequence (P33535 whole entry): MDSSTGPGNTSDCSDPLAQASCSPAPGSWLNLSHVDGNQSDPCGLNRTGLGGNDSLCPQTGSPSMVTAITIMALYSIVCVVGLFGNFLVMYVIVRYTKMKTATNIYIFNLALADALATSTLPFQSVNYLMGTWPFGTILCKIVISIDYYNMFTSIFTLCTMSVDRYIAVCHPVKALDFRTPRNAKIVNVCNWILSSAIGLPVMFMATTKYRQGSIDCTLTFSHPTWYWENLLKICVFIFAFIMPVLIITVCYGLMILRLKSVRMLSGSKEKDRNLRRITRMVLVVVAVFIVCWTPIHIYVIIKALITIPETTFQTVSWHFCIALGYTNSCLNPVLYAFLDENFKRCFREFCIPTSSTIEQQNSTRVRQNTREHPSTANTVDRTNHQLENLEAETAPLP
assay_explanation: Displacement of [3H]DAGO from mu opioid receptor in rat brain membrane
Residues, ends and D or L forms follow the SMILES beside them.
Hi there, I'd appreciate the recorded pIC50 for every entry that follows.
Just so you know, pIC50 here is -log10 of the concentration in molar units; reply with that number alone.

*Q* For NCCCC[C@H](NC(=O)[C@H](Cc1ccccc1)NC(=O)[C@@H]1CCCN1C(=O)[C@@H](N)Cc1ccc(O)cc1)C(N)=O (H-YPFK-NH2) , what is its reported pIC50?
*A* 6.39

*Q* Suppose we examine the compound C[C@H](NC(=O)[C@@H]1CCCN1C(=O)[C@@H](N)Cc1ccc(O)cc1)C(=O)N[C@@H](Cc1ccccc1)C(N)=O (H-YPAF-NH2) ; what pIC50 value has been reported?
*A* 5.42

*Q* Can you share its pIC50? I mean this compound: CC(C)C[C@H](NC(=O)[C@H](Cc1ccccc1)NC(=O)[C@@H]1CCCN1C(=O)[C@@H](N)Cc1ccc(O)cc1)C(N)=O (H-YPFL-NH2)
*A* 7.21

Reference source for all entries: ChEMBL document CHEMBL1147940
